Data provenance is patent US20230135729A1.

- Tested on: spores of ATCC BBA1870 strain
- ASSAY_REMARKS: Inhibition of germination of C. difficile spores (MIC), strain ATCC BBA1870
- Format: cell-based
- MEASUREMENT_CONDITIONS: Clostridioides difficile, ATCCBBA1870STRAIN, 1 h; strain 1870; sodium taurocholate as germinant, BHIS medium, 37° C., OD580 for 60 min; read-out: MIC (minimum concentration that completely inhibits spore germination)
- Method: According to a method disclosed in “The Journal of Infectious Diseases. 2013; 207: 1498-504”, spores of ATCC BBA1870, ATCC 43255 and ATCC 630 strains were obtained by culture and purification, and stored at 4° C. Spore preparation: the C. difficile spores stored at 4° C. were heat-activated for 30 min at 65° C., centrifuged at 9,400 g for 2 min, and washed three times to remove any self-germinating spores. […]
Listed next: entries and their corresponding log10(MIC).
Heads up: the numbers are on a log10 scale; they represent MIC in µM.

Take a look at these entries with their results.
COMPOUND	log10(MIC)
CC(=O)O[C@@H]1C[C@@H]2CC(=O)CC[C@]2(C)[C@H]2CC[C@]3(C)[C@@H]([C@H](C)CC(=O)N[C@@H](c4ccc(Cl)s4)C(C)C)CC[C@H]3[C@H]12	-0.30
C[C@H](CC(=O)NCc1cccnc1)[C@H]1CC[C@H]2[C@@H]3[C@H](O)C[C@@H]4C[C@H](O)CC[C@]4(C)[C@H]3CC[C@]12C	1.20
CC(NC(=O)C[C@@H](C)[C@H]1CC[C@H]2[C@@H]3C(=O)C[C@@H]4CC(=O)CC[C@]4(C)[C@H]3CC[C@]12C)c1ccc(S(=O)(=O)O)s1 (stereo partly drawn)	1.81
CC(C)C(NC(=O)C[C@@H](C)[C@H]1CC[C@H]2[C@@H]3C(=O)C[C@@H]4CC(=O)CC[C@]4(C)[C@H]3CC[C@]12C)c1ccc(S(=O)(=O)O)s1 (stereo partly drawn)	1.51
CC[C@@H](NC(=O)C[C@@H](C)[C@H]1CC[C@H]2[C@@H]3[C@H](O)[C@H](O)[C@@H]4CC(=O)CC[C@]4(C)[C@H]3CC[C@]12C)c1ccc(Cl)s1	1.81
CC(C)C(NC(=O)C[C@@H](C)[C@H]1CC[C@H]2[C@@H]3[C@H](O)C[C@@H]4CC(=O)CC[C@]4(C)[C@H]3CC[C@]12C)c1ccc(Br)s1 (stereo partly drawn)	-0.30
CC(C)[C@@H](NC(=O)C[C@@H](C)[C@H]1CC[C@H]2[C@@H]3[C@H](OC(=O)CCC(=O)O)C[C@@H]4CC(=O)CC[C@]4(C)[C@H]3CC[C@]12C)c1ccc(Cl)s1	0.30
CC(C)[C@@H](NC(=O)C[C@@H](C)[C@H]1CC[C@H]2[C@@H]3[C@H](O)CC4=CC(=O)C=C[C@]4(C)[C@H]3CC[C@]12C)c1ccc(Br)s1	-0.30

Give the measured log10(MIC) of CCC(NC(=O)C[C@@H](C)[C@H]1CC[C@H]2[C@@H]3C[C@H](O)[C@@H]4C[C@H](O)CC[C@]4(C)[C@H]3CC[C@]12C)c1ccc(Cl)s1 (stereo partly drawn) .
0.30

Give the measured log10(MIC) of CO[C@@H]1CC[C@@]2(C)[C@H](CC(=O)[C@@H]3[C@@H]2CC[C@]2(C)[C@@H]([C@H](C)CC(=O)N[C@@H](c4ccc(Cl)s4)C(C)C)CC[C@@H]32)C1 .
2.11

Give the measured log10(MIC) of CC(C)[C@@H](NC(=O)C[C@@H](C)[C@H]1CC[C@H]2[C@@H]3[C@H](O)C[C@@H]4C[C@H](O)CC[C@]4(C)[C@H]3C[C@H](O)[C@]12C)c1ccc(Cl)s1 .
1.20

Give the measured log10(MIC) of CCC(NC(=O)C[C@@H](C)[C@H]1CC[C@H]2[C@@H]3[C@H](O)C[C@@H]4CC(=O)CC[C@]4(C)[C@H]3CC[C@]12C)c1ccc(S(=O)(=O)O)s1 (stereo partly drawn) .
1.20

Give the measured log10(MIC) of C[C@H](CC(=O)NC(c1cccs1)C1CCCC1)[C@H]1CC[C@H]2[C@@H]3C(=O)C[C@@H]4CC(=O)CC[C@]4(C)[C@H]3CC[C@]12C (stereo partly drawn) .
1.51

Give the measured log10(MIC) of CC[C@@H](NC(=O)C[C@@H](C)[C@H]1CC[C@H]2[C@@H]3[C@H](OP(=O)(O)O)C[C@@H]4CC(=O)CC[C@]4(C)[C@H]3CC[C@]12C)c1ccc(Br)s1 .
1.81

Give the measured log10(MIC) of CC[C@@H](NC(=O)C[C@@H](C)[C@H]1CC[C@H]2[C@@H]3C(=O)CC4=CC(=O)C=C[C@]4(C)[C@H]3CC[C@]12C)c1ccc(Cl)s1 .
-0.30

* * *

Listed next: entries and their corresponding MIC.
- Tested on: spores of ATCC 630 strain
- ASSAY_REMARKS: Inhibition of germination of C. difficile spores (MIC), strain ATCC 630
- Type: cell-based
- MEASUREMENT_CONDITIONS: Clostridioides difficile, ATCC630, 1 h; strain 630; sodium taurocholate as germinant, BHIS medium, 37° C., OD580 for 60 min; read-out: MIC (minimum concentration that completely inhibits spore germination)
Field: numeric (µM). Do not append units.

COMPOUND	MIC / µM
CC(C)[C@@H](NC(=O)C[C@@H](C)[C@H]1CC[C@H]2[C@@H]3[C@H](OS(=O)(=O)O)C[C@@H]4CC(=O)CC[C@]4(C)[C@H]3CC[C@]12C)c1ccc(Br)s1	0.5
C[C@H](CC(=O)NCc1cccs1)[C@H]1CC[C@H]2[C@@H]3C(=O)C[C@@H]4C[C@H](O)CC[C@]4(C)[C@H]3CC[C@]12C	4
CC[C@H](NC(=O)C[C@@H](C)[C@H]1CC[C@H]2[C@@H]3C(=O)C[C@@H]4CC(=O)CC[C@]4(C)[C@H]3CC[C@]12C)c1cccs1	4
CC[C@@H](NC(=O)C[C@@H](C)[C@H]1CC[C@H]2[C@@H]3[C@H](O)C[C@@H]4CC(=O)CC[C@]4(C)[C@H]3CC[C@]12C)c1cccs1	2
C[C@H](CC(=O)NCc1ccccn1)[C@H]1CC[C@H]2[C@@H]3C(=O)C[C@@H]4C[C@H](O)CC[C@]4(C)[C@H]3CC[C@]12C	256
CC[C@@H](NC(=O)C[C@@H](C)[C@H]1CC[C@H]2[C@@H]3[C@H](O)C[C@@H]4CC(=O)CC[C@]4(C)[C@H]3CC[C@]12C)c1ccc(Br)s1	0.25
CC(C)[C@@H](NC(=O)C[C@@H](C)[C@H]1CC[C@H]2[C@@H]3C(=O)C[C@@H]4CC(=O)CC[C@]4(C)[C@H]3CC[C@]12C)c1ccc(Cl)s1	0.25
CC(C)[C@@H](NC(=O)C[C@@H](C)[C@H]1CC[C@H]2[C@@H]3C(=O)C[C@@H]4CC(=O)CC[C@]4(C)[C@H]3CC[C@]12C)c1ccc(C=O)s1	16
CCC(NC(=O)C[C@@H](C)[C@H]1CC[C@H]2[C@@H]3[C@H](OS(=O)(=O)O)C[C@@H]4CC(=O)CC[C@]4(C)[C@H]3CC[C@]12C)c1ccc(Cl)s1 (stereo partly shown)	1

Kindly consider the entry below.
Give the measured MIC of CCC(NC(=O)C[C@@H](C)[C@H]1CC[C@H]2[C@@H]3[C@H](O)[C@H](O)[C@@H]4C[C@H](O)CC[C@]4(C)[C@H]3CC[C@]12C)c1ccc(Br)s1 (stereo partly shown) .
8

* * *

- Test system: spores of ATCC 630 strain
- ASSAY_REMARKS: Inhibition of germination of C. difficile spores (MIC), strain ATCC 630
- Assay type: cell-based
- MEASUREMENT_CONDITIONS: Clostridioides difficile, ATCC630, 1 h; strain 630; sodium taurocholate as germinant, BHIS medium, 37° C., OD580 for 60 min; read-out: MIC (minimum concentration that completely inhibits spore germination)
Listed next: entries and their corresponding MIC.
Field: numeric (µM). Do not append units.

COMPOUND	MIC / µM
C[C@H](CC(=O)NCc1cccs1)[C@H]1CC[C@H]2[C@@H]3[C@H](O)C[C@@H]4C[C@H](O)CC[C@]4(C)[C@H]3C[C@H](O)[C@]12C	8
CC[C@@H](NC(=O)C[C@@H](C)[C@H]1CC[C@H]2[C@@H]3[C@H](OC(=O)CCCCCCC(=O)O)C[C@@H]4CC(=O)CC[C@]4(C)[C@H]3CC[C@]12C)c1ccc(Br)s1	0.25
C[C@H](CC(=O)NC(C(=O)O)c1ccccc1)[C@H]1CC[C@H]2[C@@H]3C(=O)C[C@@H]4CC(=O)CC[C@]4(C)[C@H]3CC[C@]12C (some centres unmarked)	256

Kindly consider the entry below.
Give the measured MIC of CC[C@@H](NC(=O)C[C@@H](C)[C@H]1CC[C@H]2[C@@H]3C(=O)CC4=CC(=O)CC[C@]4(C)[C@H]3CC[C@]12C)c1ccc(Br)s1 .
0.5
